- Tested on: HT-1080.hFAP and HT-1080.wt xenografts
- ASSAY_TEXT: Quantitative biodistribution in HT-1080.hFAP and HT-1080.wt xenografted mice
- Assay type: in vivo
- TEST_CONDITIONS: 4 h p.i., HT-1080.hFAP and HT-1080.wt xenografts
Field: Biodistribution Lung. Provide a value for each of the molecules that follow.

1) CN(C(=O)CCC(=O)N1CCN(C(=O)CC[C@H](C(=O)O)N2CCN3CCN(CC2)CC(=O)[O][61Cu][O]C(=O)C3)CC1)c1ccc2nccc(C(=O)NCC(=O)N3CC(F)(F)C[C@H]3C#N)c2c1 [[^61Cu]Cu-NODAGA-F4]; 0.3 ± 0.0 % IA/g
2) N#C[C@@H]1CC(F)(F)CN1C(=O)CNC(=O)c1ccnc2ccc(NC(=O)CCC(=O)NCCNC(=O)CC[C@H](C(=O)O)N3CCN4CCN(CC3)CC(=O)[O][61Cu][O]C(=O)C4)cc12 [[^61Cu]Cu-NODAGA-F1]; 0.8 ± 0.2 % IA/g
3) N#C[C@@H]1CC(F)(F)CN1C(=O)CNC(=O)c1ccnc2ccc(NC(=O)CCC(=O)N3CCN(C(=O)CC[C@H](C(=O)O)N4CCN5CCN(CC4)CC(=O)[O][61Cu][O]C(=O)C5)CC3)cc12 [[^61Cu]Cu-NODAGA-F3]; 0.7 ± 0.1 % IA/g

For each listed entry, give its Biodistribution Lung.
1. CN(C(=O)CCC(=O)NCCNC(=O)CC[C@H](C(=O)O)N1CCN2CCN(CC1)CC(=O)[O][61Cu][O]C(=O)C2)c1ccc2nccc(C(=O)NCC(=O)N3CC(F)(F)C[C@H]3C#N)c2c1 [[^61Cu]Cu-NODAGA-F2]
2. CN(CCCN1CCN(C(=O)CCC(C(=O)O)N2CCN3CCN(CC2)CC(=O)[O][61Cu][O]C(=O)C3)CC1)c1ccc2nccc(C(=O)NCC(=O)N3CC(F)(F)C[C@H]3C#N)c2c1 (some centres unmarked) [[^61Cu]Cu-NODAGA-FAPI-46]

[A]
["0.4 ± 0.0 % IA/g", "1.0 ± 0.1 % IA/g"]

----------
- ASSAY_TEXT: in vivo
- TEST_CONDITIONS: athymic nude Foxn1+Foxn1+, mouse, iv, 20 umol, total radioactivity, Biodistribution Pancreas
Record form. Attribute: tissue uptake at 4 h. Fill in for each entry.
Numbers only, in %ID/g.

1. C[C@@H](O)[C@@H]1NC(=O)[C@H](CCCCN)NC(=O)[C@@H](Cc2ccc(NC(N)=O)cc2)NC(=O)[C@H](Cc2ccc(O)cc2)NC(=O)[C@H](NC(=O)[C@H](Cc2ccc(Cl)cc2)NC(=O)CC[C@H](C(=O)O)N2CCN(CC(=O)O)CCN(CC(=O)O)CC2)CSSC[C@@H](C(=O)N[C@H](Cc2ccc(O)cc2)C(N)=O)NC1=O [[^61Cu]Cu-(R)-NODAGA-LM3, metal not drawn]; 0.44

// moving on: another record for tissue uptake at 4 h
[Q] Record request: tissue uptake at 4 h value, item C[C@@H](O)[C@@H]1NC(=O)[C@H](CCCCN)NC(=O)[C@@H](Cc2ccc(NC(N)=O)cc2)NC(=O)[C@H](Cc2ccc(O)cc2)NC(=O)[C@H](NC(=O)[C@H](Cc2ccc(Cl)cc2)NC(=O)CCC(C(=O)O)N2CCN(CC(=O)O)CCN(CC(=O)O)CC2)CSSC[C@@H](C(=O)N[C@H](Cc2ccc(O)cc2)C(N)=O)NC1=O (some centres unmarked) [[^61Cu]Cu-NODAGA-LM3, metal not drawn]
[A] 0.43
